- System: Mycobacterium tuberculosis (strain H37RV)
- experiment: In-vitro method for testing compounds against M. tuberculosis (resazurin growth inhibition, MIC)
- Format: cell-based
- experimental parameters: MIC data representing IC90's, 7 days incubation, resazurin fluorescence
Response field label: string, one of Criterion met (MIC strictly below 5 microgram/ml) or Criterion not met.

[[record]]
compound = "COc1nc2ccc(Br)cc2cc1C(c1ccc(Cl)cc1)C(O)(CCN(C)C)c1ccccc1 (single isomer, unassigned) [Compound 36]"
assigned_class = "Criterion not met"

[[record]]
compound = "CN(C)CCC(O)(c1cccc2ccccc12)C(c1ccccc1)c1cc2cc(Br)ccc2nc1N1CCOCC1 (racemic)"
assigned_class = "Criterion met"

[[record]]
compound = "COc1nc2ccc(F)cc2cc1C(c1ccccc1)C(O)(CCN(C)C)c1cc(F)cc(F)c1 (racemic) [Compound 207]"
assigned_class = "Criterion not met"

[[record]]
compound = "COc1nc2ccc(Br)cc2cc1C(c1ccccc1)C(O)(CCN(C)C)c1cccc2ccccc12 (stereo not shown) [Compound 15]"
assigned_class = "Criterion met"

[[record]]
compound = "COc1nc2ccc(Br)cc2cc1C(c1ccc(Cl)cc1)C(O)(CCN(C)C)c1cccc2ccccc12 (racemic) [Compound 73]"
assigned_class = "Criterion not met"


Req: Strictly below 5 microgram/ml in MIC? COc1nc2ccc(C)cc2cc1C(c1ccccc1)C(O)(CCN(C)C)c1ccccc1 (single isomer, unassigned) [Compound 23]
Resp: Criterion not met

Req: Lab note: MIC threshold 5 microgram/ml. Does this compound come in strictly under it? CCN(C)CCC(O)(c1cccc2ccccc12)C(c1ccccc1)c1cc2cc(Br)ccc2nc1OC (stereo not shown) [Compound 148]
Resp: Criterion not met

---

- Test system: M. Smegmatis ATCC607
- experiment: In-vitro method for testing compounds for anti-bacterial activity against strain M. smegmatis ATCC607 (Alamar Blue growth inhibition)
- Format: cell-based
- experimental parameters: Mycolicibacterium smegmatis, ATCC607, 48 h, M. smegmatis ATCC607; pIC50 = -logIC50, IC50 in M, 50% inhibitory concentration for bacterial growth; 48 hours incubation; read-out: pIC50 (converted)
measurement label: IC50 (nM)
The reply should be a number in nM, with the unit left off.

[[record]]
compound = "COc1nc2ccc(Br)cc2cc1C(c1ccccc1)C(O)(CC[N+](C)(C)[O-])c1ccccc1 (stereo not drawn)"
system_tested = "M. Smegmatis ATCC607"
measurement_units = "nM"
numeric_readout = 25100


Req: Report value only: IC50, M. Smegmatis ATCC607, COc1nc2ccc(Br)cc2cc1C(c1ccccc1)C(O)(CC[N+](C)(C)[O-])c1cccc2ccccc12 (stereo not drawn)
Resp: 12.6

Req: Check M. Smegmatis ATCC607 data and give IC50 for COc1nc2ccc(Br)cc2cc1C(c1ccccc1)C(O)(CCn1cncn1)c1cccc2ccccc12 (stereo not drawn) .
Resp: 2000

Req: Report value only: IC50, M. Smegmatis ATCC607, CNCCC(O)(c1cccc2ccccc12)C(c1ccccc1)c1cc2cc(Br)ccc2nc1OC (stereo not drawn)
Resp: 63.1

Req: For M. Smegmatis ATCC607, give the measured IC50 of the entry CCN(CC)CCC(O)(c1ccccc1)C(c1ccccc1)c1cc2cc(Br)ccc2nc1OC (stereo not drawn)
Resp: 200

Req: Report IC50 from M. Smegmatis ATCC607 testing of COc1nc2ccc(Br)cc2cc1C(c1ccccc1)C(O)(CC[N+](C)(C)C)c1ccccc1.[I-] (stereo not drawn)
Resp: 2510

---

- System: Mycobacterium tuberculosis (strain H37RV)
- experiment: In-vitro method for testing compounds against M. tuberculosis (resazurin growth inhibition, MIC)
- Format: cell-based
- experimental parameters: MIC data representing IC90's, 7 days incubation, resazurin fluorescence
Below is a list of entries, each paired with its recorded MIC value.
Just the number in microgram/ml, nothing appended.

[[record]]
compound = "COc1nc2ccc(Br)cc2cc1C(c1ccccc1)C(O)(CCN(C)C)c1cc(Br)cc2ccccc12 (single isomer, unassigned) [Compound 143]"
measurement_label = "MIC"
numeric_readout = 50.39

[[record]]
compound = "COc1nc2ccccc2cc1C(c1ccccc1)C(O)(CCN(C)C)c1ccccc1 (single isomer, unassigned) [Compound 41]"
measurement_label = "MIC"
numeric_readout = 8.51


# context switch: different compound, same MIC
Req: For COCCOc1nc2ccc(Br)cc2cc1C(c1ccccc1)C(O)(CCN(C)C)c1cccc2ccccc12 (single isomer, unassigned) [Compound 176] , write its MIC.
Resp: 9.50

---

- Tested on: Mycobacterium tuberculosis (strain H37RV)
- experiment: In-vitro method for testing compounds against M. tuberculosis (resazurin growth inhibition, MIC)
- Assay type: cell-based
- experimental parameters: MIC data representing IC90's, 7 days incubation, resazurin fluorescence
# MIC per entry
I only need the number, in microgram/ml, no unit after it.

Solved entries (count: 2):
[[record]]
compound = "COc1nc2cc(Br)ccc2cc1C(c1ccccc1)C(O)(CCN(C)C)c1cccc2ccccc12 (single isomer, unassigned) [Compound 218]"
measurement_label = "MIC"
measurement_units = "microgram/ml"
numeric_readout = 8.80

[[record]]
compound = "COc1nc2ccc(Br)cc2cc1C(c1ccccc1)C(O)(CCN(C)C)c1cccnc1 (racemic) [Compound 87]"
measurement_label = "MIC"
measurement_units = "microgram/ml"
numeric_readout = 40.23


Req: Look up MIC of COc1nc2ccc(Br)cc2cc1C(c1ccc(C)cc1)C(O)(CCN(C)C)c1cccc2ccccc12 (stereo not shown) [Compound 72] and report it.
Resp: 3.59

Req: Answer with the recorded MIC of COc1nc2ccc(Br)cc2cc1C(c1ccccc1)C(O)(CCCN1CCCC1)c1cccc2ccccc12 (single isomer, unassigned) only.
Resp: 47.31

Req: Give the value of MIC reported for the following: COc1nc2ccc(Br)cc2cc1C(c1ccccc1)C(O)(CCN(C)C)c1cc(F)cc(F)c1 (stereo not shown) [Compound 118]
Resp: 0.01

Req: Given COc1nc2ccc(Br)cc2cc1C(c1ccccc1)C(O)(CCN(C)C)c1ccsc1 (single isomer, unassigned) [Compound 25] , respond with its MIC.
Resp: 20.36

Req: Give recorded MIC. COc1nc2ccc(-c3ccco3)cc2cc1C(c1ccccc1)C(O)(CCN(C)C)c1cccc(F)c1 (single isomer, unassigned) [Compound 175]
Resp: 10.19

---

- Test system: Mycobacterium tuberculosis (strain H37RV)
- experiment: In-vitro method for testing compounds against M. tuberculosis (resazurin growth inhibition, MIC)
- Assay type: cell-based
- experimental parameters: MIC data representing IC90's, 7 days incubation, resazurin fluorescence
Below, each entry is listed alongside its reported MIC.
Numeric only. Scale: microgram/ml

Examples with answers:
[[record]]
molecule = "COc1nc2ccc(Br)cc2cc1C(c1ccccc1)C(O)(CCN(C)C)c1cccc2ccccc12 (stereo not shown) [Compound 14]"
numeric_readout = 8.80

[[record]]
molecule = "COc1nc2ccc(Br)cc2cc1C(c1ccccc1)C(O)(CCN(C)C)c1cccc(F)c1 (stereo not shown) [Compound 109]"
numeric_readout = 0.33

[[record]]
molecule = "COc1nc2ccc(Br)cc2cc1C(c1ccccc1)C(O)(CCN1CCOCC1)c1ccc2cc(Br)ccc2c1 (single isomer, unassigned) [Compound 178]"
numeric_readout = 67.65


Consider now this further molecule.
Req: Jot down MIC (Mycobacterium tuberculosis (strain H37RV)) of COc1nc2ccc(Br)cc2cc1C(c1ccccc1)C(O)(CCN(C)C)c1cc(F)ccc1F (stereo not shown) [Compound 67] .
Resp: 0.34

---

- System: Mycobacterium tuberculosis (strain H37RV)
- experiment: In-vitro method for testing compounds against M. tuberculosis (resazurin growth inhibition, MIC)
- Format: cell-based
- experimental parameters: MIC data representing IC90's, 7 days incubation, resazurin fluorescence
measurement label: MIC (microgram/ml)
Only the number, expressed in microgram/ml, is required.

[[record]]
compound = "CSc1nc2ccc(Br)cc2cc1C(c1ccccc1)C(O)(CCN(C)C)c1cccc2ccccc12 (racemic)"
numeric_readout = 45.40

[[record]]
compound = "COc1nc2ccc(Br)cc2cc1C(c1ccccc1)C(O)(CCN(C)C)c1ccccc1F (racemic) [Compound 70]"
numeric_readout = 52.35

[[record]]
compound = "COc1nc2ccc(Br)cc2cc1C(c1ccccc1)C(O)(CCN(C)C)c1ccc(N2CCOCC2)cc1 (racemic) [Compound 90]"
numeric_readout = 59.06


Req: Read off the recorded MIC for COCCOc1nc2ccc(Br)cc2cc1C(c1ccccc1)C(O)(CCN(C)C)c1cccc(F)c1 (single isomer, unassigned) [Compound 165]
Resp: 2.26

Req: Quickly give me recorded MIC for COc1nc2ccccc2cc1C(c1ccccc1)C(C)(O)CCN(C)C (single isomer, unassigned) [Compound 43]
Resp: 44.34

Req: Report MIC, nothing else, for this compound: CN(C)CCC(O)(c1ccccc1)C(c1ccccc1)c1cnc2ccc(Br)cc2c1 (stereo not drawn)
Resp: 47.54

Req: Consider the compound COc1nc2ccc(Br)cc2cc1C(c1ccccc1)C(O)(CCN1CCN(c2ncccn2)CC1)c1ccc2ccccc2c1 (single isomer, unassigned) [Compound 209] . State its measured MIC.
Resp: 67.47

Req: Determine its reported MIC: COc1nc2c(C)cc(Br)cc2cc1C(c1ccccc1)C(O)(CCN(C)C)c1cccc(F)c1 (single isomer, unassigned) [Compound 219]
Resp: 42.69

Req: Identify MIC associated with the compound COc1nc2ccc(-c3ccccc3)cc2cc1C(c1ccccc1)C(O)(CCN(C)C)c1cccc2ccccc12 (racemic) [Compound 84]
Resp: 8.76

Req: Check the records and state MIC for COc1ccc2nc(OC)c(C(c3ccccc3)C(O)(CCN(C)C)c3cccc4ccccc34)cc2c1 (single isomer, unassigned) [Compound 98]
Resp: 0.51

Req: Please report the measured MIC for COc1nc2ccc(Br)cc2cc1C(c1ccccc1)C(O)(CCN(C)C)c1ccc(C#N)cc1 (racemic) [Compound 81]
Resp: 42.14

Req: Please indicate MIC recorded for COc1nc2ccc(Br)cc2cc1C(c1ccccc1)C(O)(CCN)c1ccccc1 (stereo not drawn) [Compound 44]
Resp: 6.01

Req: Tell us which MIC value is on record for COc1nc2ccc(Br)cc2cc1C(c1ccccc1)C(O)(CCCN1CCOCC1)c1cccc2ccccc12 (single isomer, unassigned) [Compound 210]
Resp: 61.16

Req: Complete the entry with MIC for COc1nc2ccc(Cl)cc2cc1C(c1ccccc1)C(O)(CCN(C)C)c1cccc2ccccc12 (single isomer, unassigned) [Compound 120]
Resp: 40.60

Req: Quote MIC reported for COc1nc2ccc(Br)cc2cc1C(c1ccccc1)C(O)(CCN(C)C)c1cccnc1 (racemic) [Compound 86] please.
Resp: 16.02

Req: Given the compound COc1nc2ccc(Br)cc2cc1C(c1ccccc1)C(O)(CCN(C)C)c1ccc2ccccc2c1 (racemic) [Compound 46] , write its reported MIC.
Resp: 1.76

Req: Hello, please tell me recorded MIC for this one: CCOc1nc2ccc(Br)cc2cc1C(c1ccccc1)C(O)(CCN(C)C)c1ccccc1 (stereo not drawn) [Compound 5]
Resp: 0.33

Req: Please supply the value of reported MIC for the item COc1nc2ccc(Br)cc2cc1C(c1ccccc1)C(O)(CCN)c1ccccc1 (stereo not drawn) [Compound 9]
Resp: 37.92

Req: # return recorded MIC for entry COc1nc2ccc(Br)cc2cc1C(c1ccccc1)C(O)(CCN1CCN(C)CC1)c1ccccc1 (racemic)
Resp: 7.06

Req: Note down MIC recorded for COc1nc2ccc(Br)cc2cc1C(c1ccccc1)C(O)(CCN(C)C)c1ccc2c(Br)cccc2c1 (single isomer, unassigned) [Compound 130]
Resp: 50.32

Req: Determine from records and report MIC for COc1nc2ccccc2cc1C(c1ccccc1)C(C)(O)CCN(C)C (single isomer, unassigned) [Compound 42]
Resp: 44.34

Req: Determine its reported MIC: COc1nc2ccc(Br)cc2cc1C(c1ccccc1)C(O)(CCN1CCCCC1)c1ccccc1 (stereo not drawn)
Resp: 8.65

Req: Indicate its recorded MIC; the compound in question is COc1nc2ccc(Cl)cc2cc1C(c1ccccc1)C(O)(CCN(C)C)c1ccccc1 (single isomer, unassigned) [Compound 31]
Resp: 7.31
